assay: Viability Counterscreen for Primary qHTS for Inhibitors of ATXN expression; conditions: S2 cells (HEK-293 line with an ATXN2-luciferase reporter) viability, CellTiter-Fluor protease fluorescence, 24 h; series mostly up to 56.7 µM; further: nearly all actives have a fitted effect of over 40% in size
The campaign covered roughly 400,000 compounds. About 1,900 (0.47%) were called active. Not shown: some 14% with an inconclusive outcome. The call rests on the fitted dose curve; in most records, active means well fitted cell-killing curve with a large enough effect; inconclusive means small, poorly fitted or top-dose-only effect, or effect the other way; inactive means no such curve, though single readings can be large or run the other way. Only a selection was taken, and actives are over-represented in it overall.
Your reply should match one of these outcome classes. 1.0 (active), 0.0 (inactive)

Answered cases to consult:
IN: Entry CC(C)C[C@H]1CNC(=S)N1C[C@H]1CCCN1C[C@H](Cc1ccc(O)cc1)N1C[C@H](Cc2ccc(O)cc2)N(CC2CCCCC2)C1=S : call = ?
OUT: 1.0

IN: Entry Nc1ncnc2c1ncn2[C@@H]1O[C@H](CNC(=O)[C@H](N)Cc2cccnc2)[C@@H](O)[C@H]1O : call = ?
OUT: 0.0

IN: Entry CC(C)(c1ccccc1)c1ccc(OCCN2CCCC2)cc1 : call = ?
OUT: 0.0

IN: Entry CC(=O)Nc1cc(C(=O)N2CCc3c(Cl)cccc3C2)cc2ncn(CCc3ccccn3)c12 : call = ?
OUT: 0.0

More entries:
IN: Entry O=C(CSc1n[nH]c(=O)n1-c1ccccc1)Nc1ccccc1C(F)(F)F : call = ?
OUT: 0.0

IN: Entry CC(C)(C)C1CCc2c(sc(NC(=O)c3ccccc3F)c2C(=O)N2CCCCC2)C1 (stereo not given) : call = ?
OUT: 0.0

IN: Entry CCOC(=O)N(C)c1c(CC)nc2c(OCc3ccccc3C(=O)OC)cccn12 : call = ?
OUT: 0.0

IN: Entry COc1ccc(-c2nc3nc(C)cc(C)n3c2Nc2c(C)cccc2C)cc1 : call = ?
OUT: 1.0

IN: Entry COCc1c(C(=O)NC2CCCCC2)cnn1-c1nccc(-c2ccccc2OC)n1 : call = ?
OUT: 0.0

* * *

test: Viability Counterscreen for Primary qHTS for Inhibitors of ATXN expression; conditions: S2 cells (HEK-293 line with an ATXN2-luciferase reporter) viability, CellTiter-Fluor protease fluorescence, 24 h; series mostly up to 56.7 µM; further: nearly all actives have a fitted effect of over 40% in size; further: potency means the concentration at half of the fitted maximal effect
Hit rate of the full screen: of about 400,000 compounds, about 1,900 (0.47%) were called active. Not shown: some 14% with an inconclusive outcome. The entries come from a sample that favours actives as a whole.
Attribute Measured: Potency

Answered cases to consult:
IN: Item under review: CC1(C)[C@H](O[C@H]2O[C@H](C(=O)O)[C@@H](O)[C@H](O)[C@H]2O[C@@H]2O[C@H](C(=O)O)[C@@H](O)[C@H](O)[C@H]2O)CC[C@@]2(C)[C@H]1CC[C@]1(C)[C@H]2C(=O)C=C2[C@H]3C[C@@](C)(C(=O)O)CC[C@]3(C)CC[C@]21C . Reported Potency?
OUT: inactive

IN: Item under review: CC[C@H](C)CCCCC(=O)N[C@@H](CCN)C(=O)N[C@H](C(=O)N[C@@H](CCN)C(=O)N[C@H]1CCNC(=O)[C@@H]([C@H](C)O)NC(=O)[C@H](CCN)NC(=O)[C@H](CCN)NC(=O)[C@H](CC(C)C)NC(=O)[C@@H](CC(C)C)NC(=O)[C@H](CCN)NC1=O)[C@@H](C)O . Reported Potency?
OUT: inactive

IN: Item under review: CCc1ccc2c(c1)NC(=O)C2(C)Cc1ccc(OC(F)(F)F)cc1 (stereo unspecified) . Reported Potency?
OUT: 20 µM (active)

IN: Item under review: O=C1NC(CC(=O)N2CCC(n3c(C4CCC4)nc4cccnc43)CC2)c2ccccc21 (stereo unspecified) . Reported Potency?
OUT: inactive

More entries:
IN: Item under review: Cc1nnc(C(=O)NC(C)(C)c2nc(C(=O)NCc3ccc(F)cc3)c(O)c(=O)n2C)o1 . Reported Potency?
OUT: inactive

IN: Item under review: CS(=O)(=O)NC(=O)CCC/C=C\C[C@H]1C(=O)C[C@@H](O)[C@@H]1/C=C/[C@H](O)COc1ccccc1 . Reported Potency?
OUT: inactive

IN: Item under review: CCCOc1ccc(F)cc1-c1cc(C(=O)NCc2ccc(F)cc2)[nH]n1 . Reported Potency?
OUT: inactive

IN: Item under review: CCOC(=O)[C@]12CCC=C1N(Cc1ccco1)C(=O)[C@H](CC(=O)NCc1cccc(C(F)(F)F)c1)C2 . Reported Potency?
OUT: inactive

IN: Item under review: Cc1ccc(S(=O)(=O)c2nc(-c3cccs3)oc2NCc2cccnc2)cc1 . Reported Potency?
OUT: inactive

* * *

assay: Viability Counterscreen for Primary qHTS for Inhibitors of ATXN expression; settings: S2 cells (HEK-293 line with an ATXN2-luciferase reporter) viability, CellTiter-Fluor protease fluorescence, 24 h; series mostly up to 56.7 µM; further: nearly all actives have a fitted effect of over 40% in size
About 1,900 (0.47%) of roughly 400,000 compounds were called active. About 14% were inconclusive and are not listed. The call rests on the fitted dose curve; in most records, active means well fitted cell-killing curve with a large enough effect; inconclusive means small, poorly fitted or top-dose-only effect, or effect the other way; inactive means no such curve, though single readings can be large or run the other way. The full list was thinned out, with actives kept by preference.
Your reply should match one of these outcome classes. active, inactive

Answered cases to consult:
IN: Entry C/C(=N\NC(=O)Cc1ccc(Cl)cc1)c1ccccn1 : call = ?
OUT: active

IN: Entry COc1ccc2c(c1OC)C(=O)OC2Nc1nc(-c2ccccc2)cs1 (stereo unspecified) : call = ?
OUT: active

IN: Entry C/C(CC1CC(C)(C)OC1=O)=N/Nc1nc(-c2ccccc2)cs1 (stereo unspecified) : call = ?
OUT: inactive

IN: Entry COc1ccc(-c2csc(Nc3cccc(C)n3)n2)cc1OC : call = ?
OUT: inactive

IN: Entry O=C(NCCOc1ccccc1)c1ccccc1F : call = ?
OUT: inactive

Next up:
IN: Entry Cc1ccc(-c2csc(-c3c[nH]c4ccccc34)n2)cc1 : call = ?
OUT: inactive

* * *

assay: Viability Counterscreen for Primary qHTS for Inhibitors of ATXN expression; details: S2 cells (HEK-293 line with an ATXN2-luciferase reporter) viability, CellTiter-Fluor protease fluorescence, 24 h; series mostly up to 56.7 µM; further: nearly all actives have a fitted effect of over 40% in size
In all, about 400,000 compounds went through this assay and about 1,900 (0.47%) were called active. About 14% were inconclusive and are not listed. The call rests on the fitted dose curve; in most records, active means well fitted cell-killing curve with a large enough effect; inconclusive means small, poorly fitted or top-dose-only effect, or effect the other way; inactive means no such curve, though single readings can be large or run the other way. For the sample, actives were picked, then their nearest neighbours and some compounds at random.
Your reply should match one of these outcome classes. label 1 = active, label 0 = inactive

IN: Entry CCOC(=O)c1c(-c2ccc(-c3ccccc3)cc2)csc1NC(=O)CCC(=O)O : call = ?
OUT: label 0

IN: Entry Cn1c(=O)[nH]c(=O)c2c1nc(N1CCN(CCO)CC1)n2CCSc1nc2ccccc2s1 : call = ?
OUT: label 0

IN: Entry CCOC(=O)c1scc(-c2ccccc2)c1S(=O)(=O)Nc1ccccc1F : call = ?
OUT: label 0

More entries:
IN: Entry COc1ccc(OCCCn2c(C)nc3cc(C)c(C)cc32)cc1 : call = ?
OUT: label 1

IN: Entry Cc1cc2nc(C)n(CCCNC(=O)Nc3ccccc3)c2cc1C : call = ?
OUT: label 0

* * *

assay: Viability Counterscreen for Primary qHTS for Inhibitors of ATXN expression; details: S2 cells (HEK-293 line with an ATXN2-luciferase reporter) viability, CellTiter-Fluor protease fluorescence, 24 h; series mostly up to 56.7 µM; further: nearly all actives have a fitted effect of over 40% in size
The whole screen tested about 400,000 compounds, of which about 1,900 (0.47%) were called active. About 14% were inconclusive and are not listed. Calls come from the whole dose curve; as a rule, active = well fitted cell-killing curve with a large enough effect; inconclusive = small, poorly fitted or top-dose-only effect, or effect the other way; inactive = no such curve, though single readings can be large or run the other way. For the sample, actives were picked, then their nearest neighbours and some compounds at random.
Your reply should match one of these outcome classes. true (1) (active), false (0) (inactive)

IN: Entry Cn1nccc1C(=O)NCC1CCC2(CCN(Cc3c(O)ccc4ccccc34)CC2)O1 (stereo not given) : call = ?
OUT: false (0)

IN: Entry COCc1cccc(-c2csc(C(O)c3ccc(F)cc3)n2)c1 (stereo not given) : call = ?
OUT: false (0)

IN: Entry COc1cc(C(=O)OC(C)C(=O)NCC2CCCCC2)cc(NC(=O)c2ccco2)c1OC (stereo not given) : call = ?
OUT: true (1)

IN: Entry CC(O)CNCCOc1cccc(Oc2ccccc2)c1 (stereo not given) : call = ?
OUT: false (0)

IN: Entry CC(OC(=O)c1cccc(S(=O)(=O)N2CCOCC2)c1)C(=O)NCC1CCCCC1 (stereo not given) : call = ?
OUT: false (0)

IN: Entry Cc1ccc(F)cc1S(=O)(=O)N1CCC(c2nc3ccccc3s2)CC1 : call = ?
OUT: false (0)

IN: Entry CCOP(=O)(OCC)C(Cc1ccccc1)N=C(c1ccccc1)c1ccccc1 (stereo not given) : call = ?
OUT: false (0)

IN: Entry COc1ccccc1OCCNCC(O)COc1cccc2[nH]c3ccccc3c12 (stereo not given) : call = ?
OUT: true (1)

IN: Entry O=C(C(=O)N1CCOc2ccc(CN3CCN(Cc4ccccn4)CC3)cc2C1)c1ccccc1 : call = ?
OUT: false (0)

More entries:
IN: Entry Oc1[nH]c2ccccc2c1N=Nc1c(F)c(F)c(F)c(F)c1F : call = ?
OUT: false (0)

* * *

assay: Viability Counterscreen for Primary qHTS for Inhibitors of ATXN expression; conditions: S2 cells (HEK-293 line with an ATXN2-luciferase reporter) viability, CellTiter-Fluor protease fluorescence, 24 h; series mostly up to 56.7 µM; further: nearly all actives have a fitted effect of over 40% in size
Screen size: about 400,000 compounds; about 1,900 (0.47%) were called active. Roughly 14% stayed inconclusive and do not appear here. The call rests on the fitted dose curve; in most records, active means well fitted cell-killing curve with a large enough effect; inconclusive means small, poorly fitted or top-dose-only effect, or effect the other way; inactive means no such curve, though single readings can be large or run the other way. The sample holds actives, similar compounds and a random draw of the others, so the mix is not that of the screen.
Your reply should match one of these outcome classes. Yes = active, No = inactive

IN: Entry Cc1ccc(-c2ccc(C(=O)N3CCc4nnc(CNC(=O)c5ccccc5)n4CC3)cc2)cc1 : call = ?
OUT: No

IN: Entry Cc1cc(Nc2cccc(C(F)(F)F)c2)nc2ccc(NC(=O)c3ccc(=O)[nH]c3)cc12 : call = ?
OUT: No

IN: Entry CC(C)(C)S(=O)N1Cc2cc(C(=O)NCCCN3CCOCC3)nc(-c3cccc(-c4cc5ccccc5o4)c3)c2[C@H]1CCO (some centres undefined) : call = ?
OUT: No

IN: Entry COc1ccc(CN(C)CCn2cc(C(=O)N3CCSCC3)nn2)cc1C : call = ?
OUT: No

IN: Entry Cc1ccccc1-c1csc(C(O)c2cccc(Cl)c2)n1 (centres undefined) : call = ?
OUT: No

IN: Entry O=C(NC(c1ccc(Cl)cc1)c1cnccn1)C1CCN(Cc2ccc(Cl)cc2)CC1 (centres undefined) : call = ?
OUT: No

IN: Entry O=CNc1cc(-c2ccc(C(=O)N3CCOCC3)cc2)cn2c(-c3ccc(F)cc3)cnc12 : call = ?
OUT: No

IN: Entry C#Cc1ccc(NC(=O)C2(C)CCN2C(=O)Cc2ccc(-c3ccccc3)cc2)cc1 (centres undefined) : call = ?
OUT: No

IN: Entry O=[N+]([O-])c1ccc(C=Nc2ccc(Cl)cc2Cl)s1 : call = ?
OUT: Yes

IN: Entry N#Cc1ccc(-c2nc3c(Cl)cc(C(F)(F)F)cn3c2Cc2ccccc2C(F)(F)F)cc1 : call = ?
OUT: No

IN: Entry CCCc1c2oc(C(=O)O)cc(=O)c2cc2c(=O)cc(C(=O)O)n(CC)c12 : call = ?
OUT: No

IN: Entry C[C@@H]1CN(Cc2ccc3c(c2)CN(Cc2ccc(Oc4ncccn4)cc2)CCO3)C[C@H](C)O1 : call = ?
OUT: No

IN: Entry CN[C@@H]1[C@@H](O)[C@@H](O[C@@H]2[C@H](O)[C@H](O[C@H]3OC(CN)=CC[C@H]3N)[C@@H](N)C[C@H]2N)OCC1(C)O (some centres undefined) : call = ?
OUT: No

IN: Entry COc1cc(OC)cc(C(=O)Nc2ccc3nc(Nc4cccc(C(F)(F)F)c4)cc(C)c3c2)c1 : call = ?
OUT: No

IN: Entry CCc1ccc2c(c1)C1(NN=C(c3ccccc3)S1)C(=O)N2 (centres undefined) : call = ?
OUT: Yes

IN: Entry COc1ccccc1-c1ccnc(-n2ncc(C(=O)NCCCN3CCOCC3)c2C)n1 : call = ?
OUT: No

IN: Entry Cc1ccc(NS(=O)(=O)c2cc3c(cc2Br)NC(=O)CO3)cc1C : call = ?
OUT: No

IN: Entry CC(=O)Nc1cncc(-c2ccccc2CO)n1 : call = ?
OUT: No

IN: Entry CNN/C(N=Cc1ccc([N+](=O)[O-])s1)=N\S(=O)(=O)c1cc(C)c(Cl)cc1SCc1ccccc1 : call = ?
OUT: No
